The measured values listed here are drawn from ChEMBL document CHEMBL4689842.

Test system: Fibroblast
experiment: Multiplex assay against human fibroblast
Assay type: toxicity, cell-based
details: 12 h, 10 µM, compound concentration 10 uM, replicate 2
Mark fulfilled for reported Population Mitochondria Different-Phenotype (%) of 9% or greater; mark not fulfilled for anything smaller.

Does the compound CN(C)C(=O)C(CCN1CCC(O)(c2ccc(Cl)cc2)CC1)(c1ccccc1)c1ccccc1.Cl [LOPERAMIDE HYDROCHLORIDE] have recorded Population Mitochondria Different-Phenotype (%) that is 9% or more? fulfilled

Is the recorded value of Population Mitochondria Different-Phenotype (%) equal to or greater than 9% for this compound? COc1ccc(S(=O)(=O)N(CCO)c2ccccc2CN(C)C/C=C/c2ccc(Cl)cc2)cc1.O=P(O)(O)O fulfilled

Dear colleague, could you confirm whether O=C1NC(=O)C(c2cnc3ccccn23)=C1c1cn2c3c(cc(F)cc13)CN(C(=O)N1CCCCC1)CC2 has Population Mitochondria Different-Phenotype (%) at or above 9%? fulfilled

Does the compound Cn1nc(C(F)(F)F)cc1-c1cnc(N2CCc3cc(S(=O)(=O)Nc4c(F)cc(Cl)cc4F)cc(N4CCCC4=O)c32)nc1 have recorded Population Mitochondria Different-Phenotype (%) that is 9% or more? not fulfilled

Answer whether Population Mitochondria Different-Phenotype (%) of COC(=N)c1nc2ccc3ncnc(Nc4ccc(OC)cc4F)c3c2s1 is greater than or equal to 9%. not fulfilled

Evaluate CNc1cc(Oc2cc(C(=O)Nc3cc(N4CCN(C)CC4)cc(C(F)(F)F)c3)ccc2C)ncn1 : Population Mitochondria Different-Phenotype (%) at minimum 9%? fulfilled

Is it the case that CCCS(=O)(=O)Nc1ccc(F)c(C(=O)c2c[nH]c3ncc(Cl)cc23)c1F has Population Mitochondria Different-Phenotype (%) reaching or exceeding 9%? not fulfilled

Dear colleague, could you confirm whether CCOC(=O)c1c(C)[nH]c2ccc3c(c12)CN1CCc2cc(OC)ccc2C1O3 (stereo not given) has Population Mitochondria Different-Phenotype (%) at or above 9%? fulfilled

// inclusive: Population Mitochondria Different-Phenotype (%) at least 9%? input: COc1cccc2cc(-c3nc([C@H]4CC[C@H](C(=O)O)CC4)n4ncnc(N)c34)[nH]c12 fulfilled
